Value source: ChEMBL document CHEMBL4406921

test-target: Mu-type opioid receptor (Homo sapiens, UniProt P35372)
Sequence (P35372 whole entry): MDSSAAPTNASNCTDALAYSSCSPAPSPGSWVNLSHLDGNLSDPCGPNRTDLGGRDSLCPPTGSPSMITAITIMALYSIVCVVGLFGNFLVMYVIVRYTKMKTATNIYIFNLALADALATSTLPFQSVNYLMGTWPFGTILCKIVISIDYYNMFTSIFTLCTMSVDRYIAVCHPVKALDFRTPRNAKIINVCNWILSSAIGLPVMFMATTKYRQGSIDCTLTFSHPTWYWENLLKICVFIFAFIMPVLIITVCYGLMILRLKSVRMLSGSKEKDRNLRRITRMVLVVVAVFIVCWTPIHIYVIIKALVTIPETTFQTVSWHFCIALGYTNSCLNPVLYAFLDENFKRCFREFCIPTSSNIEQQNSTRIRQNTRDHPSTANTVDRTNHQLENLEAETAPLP
measurement-notes: Antagonist activity at human recombinant mu opioid receptor expressed in CHO-K1 cell membranes assessed as intrinsic activity at 10 pM to 20 uM incubated for 30 mins in presence of Eu-GTP by DELFIA GTP binding assay relative to DAMGO
outcome-measure: Intrinsic activity

compound | Intrinsic activity
C[C@H]1CN(C[C@H](Cc2ccccc2)C(=O)NCC(=O)O)CC[C@H]1c1cccc(O)c1 | -7%
NC(=O)c1cccc([C@H]2C[C@H]3CC[C@@H](C2)N3CCN(CC2CCCC2)C(=O)CO)c1 | 4%
NC(=O)c1cccc([C@H]2C[C@H]3CC[C@@H](C2)N3CCN(Cc2ccccc2)C(=O)CO)c1 | -3%
C[C@H]1CN(CCCc2ccccc2)CC[C@@]1(C)c1cccc(O)c1 | -21%
CCCCCCN(CCN1[C@@H]2CC[C@H]1C[C@@H](c1cccc(C(N)=O)c1)C2)C(=O)CO | -9%
NC(=O)c1cccc([C@H]2C[C@H]3CC[C@@H](C2)N3CCN(CC2CCC2)C(=O)CO)c1 | 13%
NC(=O)c1cccc([C@H]2C[C@H]3CC[C@@H](C2)N3CCN(CC2CCCCC2)C(=O)[C@@H](O)CO)c1.O=S(=O)(O)O [AXELOPRAN SULFATE] | -3%

Now for the compound whose Intrinsic activity we want.
Supply Intrinsic activity value. Item: `NC(=O)c1cccc([C@H]2C[C@H]3CC[C@@H](C2)N3CCN(CC2CCCCC2)C(=O)CO)c1`
-3%

---

measurement-notes: Half life in human liver microsomes at 3 uM
Assay type: ADME, Microsome
outcome-measure: half-life at 3 µM

Consider the worked cases shown below.
compound | meas-value
NC(=O)c1cccc([C@H]2C[C@H]3CC[C@@H](C2)N3CCN(CCc2ccccc2)C(=O)CO)c1 | 1.5 h
NC(=O)c1cccc([C@H]2C[C@H]3CC[C@@H](C2)N3CCN(CC2CCCCC2)C(=O)[C@@H](O)CO)c1.O=S(=O)(O)O [AXELOPRAN SULFATE] | 1.5 h
C[C@H]1CN(C[C@H](Cc2ccccc2)C(=O)NCC(=O)O)CC[C@H]1c1cccc(O)c1 | > 1.5 h

// moving on: another record for half-life at 3 µM
Look up half-life at 3 µM of `CC(C)(C)C(=O)N(CCN1[C@@H]2CC[C@H]1C[C@@H](c1cccc(C(N)=O)c1)C2)CC1CCCCC1` and report it.
0.15 h

---

measurement-notes: Oral bioavailability in Sprague-Dawley rat at 100 mg/kg administered via gavage
Format: ADME, organism-based
test-context: in vivo
outcome-measure: bioavailability (%)
I only need the number, in %, no unit after it.

Please indicate bioavailability recorded for C[N+]1(CC2CC2)CC[C@]23c4c5ccc(O)c4O[C@H]2C(=O)CC[C@@]3(O)[C@H]1C5.[Br-] (stereo partly specified) [METHYLNALTREXONE BROMIDE]
2.6

---

measurement-notes: Half life in rat liver microsomes at 3 uM
Type: ADME, Microsome
outcome-measure: log10 half-life at 3 µM (log10 of the value in h)
Recorded half-life at 3 µM (log10, h)

compound | log10 half-life at 3 µM
COC(=O)N(CCN1[C@@H]2CC[C@H]1C[C@@H](c1cccc(C(N)=O)c1)C2)CC1CCCCC1 | -1.48
CCC(CC)CN(CCCCN1[C@@H]2CC[C@H]1C[C@@H](c1cccc(C(N)=O)c1)C2)C(=O)CO | 0.18
CCCCCCN(CCN1[C@@H]2CC[C@H]1C[C@@H](c1cccc(C(N)=O)c1)C2)C(=O)CO | 0.07
CCC(CC)CN(CCCN1[C@@H]2CC[C@H]1C[C@@H](c1cccc(C(N)=O)c1)C2)C(=O)CO | 0.17

Tell me measured log10 half-life at 3 µM for `CN(C)S(=O)(=O)N(CCN1[C@@H]2CC[C@H]1C[C@@H](c1cccc(C(N)=O)c1)C2)CC1CCCCC1` please.
-0.88

Return log10 half-life at 3 µM for the following compound: `CCC(CC)CN(CCN1[C@@H]2CC[C@H]1C[C@@H](c1cccc(C(N)=O)c1)C2)C(=O)CO`
0.18

Report log10 half-life at 3 µM for `NC(=O)c1cccc([C@H]2C[C@H]3CC[C@@H](C2)N3CCN(CCc2ccccc2)C(=O)CO)c1`
-0.25

Report log10 half-life at 3 µM, nothing else, for this compound: `NC(=O)c1cccc([C@H]2C[C@H]3CC[C@@H](C2)N3CCN(CC2CCC(F)(F)CC2)C(=O)CO)c1`
0.18

Give a short answer stating reported log10 half-life at 3 µM for `NC(=O)c1cccc([C@H]2C[C@H]3CC[C@@H](C2)N3CCN(CC2CCCC2)C(=O)CO)c1` .
0.18

---

Reported half-life at 3 µM values for the following compounds.
measurement-notes: Half life in human liver microsomes at 3 uM
Type: ADME, Microsome

Previously resolved entries follow.
chem-smiles | half-life at 3 µM
CCC(CC)CN(CCCCN1[C@@H]2CC[C@H]1C[C@@H](c1cccc(C(N)=O)c1)C2)C(=O)CO | 21 min
CCC(CC)CN(CCCCCCN1[C@@H]2CC[C@H]1C[C@@H](c1cccc(C(N)=O)c1)C2)C(=O)CO | 9 min
NC(=O)c1cccc([C@H]2C[C@H]3CC[C@@H](C2)N3CCN(CC2CCC(F)(F)CC2)C(=O)CO)c1 | 90 min

# input for lookup
Please report half-life at 3 µM for the following compound: `C[C@H]1CN(C[C@H](Cc2ccccc2)C(=O)O)CC[C@@]1(C)c1cccc(O)c1`
> 90 min

---

measurement-notes: Oral bioavailability in human
Format: ADME, organism-based
test-context: in vivo
outcome-measure: bioavailability (%)
Please give a number only; it is taken to be in %.

Input `C[C@H]1CN(C[C@H](Cc2ccccc2)C(=O)NCC(=O)O)CC[C@H]1c1cccc(O)c1` , output reported bioavailability.
6

---

measurement-notes: Efflux ratio of permeability in human Caco2 cells
Type: ADME, cell-based
test-context: Caco-2
outcome-measure: efflux ratio
// no unit, no text: just the number

Retrieve efflux ratio measured for NC(=O)c1cccc([C@H]2C[C@H]3CC[C@@H](C2)N3CCN(CC2CCCCC2)C(=O)[C@@H](O)CO)c1.O=S(=O)(O)O [AXELOPRAN SULFATE] and print it.
10

---

Examples of molecules with documented log10 of half-life at 3 µM follow.
measurement-notes: Half life in dog liver microsomes at 3 uM
Type: ADME, Canis lupus familiaris, Microsome
Scale: decimal log of half-life at 3 µM, half-life at 3 µM in min.

molecule | log10 of half-life at 3 µM
NC(=O)c1cccc([C@H]2C[C@H]3CC[C@@H](C2)N3CCN(CC2CCCCC2)C(=O)Cc2nnn[nH]2)c1 | 1.95

Return the recorded log10 of half-life at 3 µM value; entry: `NC(=O)c1cccc([C@H]2C[C@H]3CC[C@@H](C2)N3CCN(CC2CCCC2)C(=O)CO)c1`
1.15

Return reported log10 of half-life at 3 µM. Input molecule: `NC(=O)c1cccc([C@H]2C[C@H]3CC[C@@H](C2)N3CCN(CC2CCC(F)(F)CC2)C(=O)CO)c1`
1.95

Give the reported log10 of half-life at 3 µM for this molecule. `CC(=O)N(CCN1[C@@H]2CC[C@H]1C[C@@H](c1cccc(C(N)=O)c1)C2)CC1CCCCC1`
1.20

Give recorded log10 of half-life at 3 µM. `CS(=O)(=O)N(CCN1[C@@H]2CC[C@H]1C[C@@H](c1cccc(C(N)=O)c1)C2)CC1CCCCC1`
0.30

Give the value of log10 of half-life at 3 µM reported for the following: `CC(C)(C)C(=O)N(CCN1[C@@H]2CC[C@H]1C[C@@H](c1cccc(C(N)=O)c1)C2)CC1CCCCC1`
0.30

---

measurement-notes: Half life in Sprague-Dawley rat at 5 mg/kg, po administered via gavage
Format: ADME, organism-based
test-context: in vivo
outcome-measure: half-life (h)
Write the answer as a number in h, unit excluded.

compound | half-life / h
C[C@H]1CN(C[C@H](Cc2ccccc2)C(=O)O)CC[C@@]1(C)c1cccc(O)c1 | 3.7

Note down half-life recorded for `NC(=O)c1cccc([C@H]2C[C@H]3CC[C@@H](C2)N3CCN(CC2CCCCC2)C(=O)CO)c1`
1.3

Please list half-life recorded for the compound `NC(=O)c1cccc([C@H]2C[C@H]3CC[C@@H](C2)N3CCN(CC2CCC(F)(F)CC2)C(=O)CO)c1`
2

Determine its reported half-life: NC(=O)c1cccc([C@H]2C[C@H]3CC[C@@H](C2)N3CCN(CC2CCCCC2)C(=O)[C@@H](O)CO)c1.O=S(=O)(O)O [AXELOPRAN SULFATE]
1.3

Check the records and state half-life for `CS(=O)(=O)CC(=O)N(CCN1[C@@H]2CC[C@H]1C[C@@H](c1cccc(C(N)=O)c1)C2)CC1CCCCC1`
1
